Target: CDK2/Cyclin A (Homo sapiens, UniProt P24941)
Experiment: Inhibition of CDK2/Cyclin A Retinoblastoma Kinase Activity
Conditions: apparent Ki, CDK2/proteolyzed cyclin A, Rb fragment substrate, 25 μM ATP
Counter-ions that a name gives are not always drawn.
Lab note: anything with Ki below 6 nM is marked criterion met; values at 6 nM or higher are marked criterion not met.

- compound: "Cc1cc(C)cc(C(=O)N2CCC(Nc3nc(N)c(C(=O)c4c(F)cccc4F)s3)CC2)c1"
  study target: "CDK2/Cyclin A (Homo sapiens, UniProt P24941)"
  class label: "criterion not met"
- compound: "CC1CCCC(NCCS(=O)(=O)N2CCC(Nc3nc(N)c(C(=O)c4c(F)cccc4F)s3)CC2)C1 (mixture of isomers)"
  study target: "CDK2/Cyclin A (Homo sapiens, UniProt P24941)"
  class label: "criterion met"
- compound: "CC1(C)CN(c2ccc(S(=O)(=O)N3CCC(Nc4nc(N)c(C(=O)c5c(F)cccc5F)s4)CC3)cn2)C=N1"
  study target: "CDK2/Cyclin A (Homo sapiens, UniProt P24941)"
  class label: "criterion met"
- compound: "CN(C)CCS(=O)(=O)N1CCC(Nc2nc(N)c(C(=O)c3c(F)cccc3F)s2)CC1"
  study target: "CDK2/Cyclin A (Homo sapiens, UniProt P24941)"
  class label: "criterion not met"
- compound: "Nc1nc(NC2CCN(S(=O)(=O)CCN(CC3CC3)CC3CC3)CC2)sc1C(=O)c1c(F)cccc1F"
  study target: "CDK2/Cyclin A (Homo sapiens, UniProt P24941)"
  class label: "criterion met"
- compound: "CN(C)CC(=O)N1CCC(Nc2nc(N)c(C(=O)c3c(F)cccc3F)s2)CC1 [Example D2]"
  study target: "CDK2/Cyclin A (Homo sapiens, UniProt P24941)"
  class label: "criterion not met"
- compound: "N#Cc1ccc(S(=O)(=O)N2CC[C@H](Nc3nc(N)c(C(=O)c4c(F)cccc4F)s3)C2)cc1"
  study target: "CDK2/Cyclin A (Homo sapiens, UniProt P24941)"
  class label: "criterion not met"
- compound: "Nc1nc(NC2CCN(S(=O)(=O)CCCNCc3ccc(F)cc3)CC2)sc1C(=O)c1c(F)cccc1F"
  study target: "CDK2/Cyclin A (Homo sapiens, UniProt P24941)"
  class label: "criterion met"
- compound: "CC1(C)CN=C(c2ccc(S(=O)(=O)N3CCC(Nc4nc(N)c(C(=O)c5c(F)cccc5F)s4)CC3)cc2)N1"
  study target: "CDK2/Cyclin A (Homo sapiens, UniProt P24941)"
  class label: "criterion met"
- compound: "Nc1nc(NC2CCN(S(=O)(=O)CCN3CC=CCC3)CC2)sc1C(=O)c1c(F)cccc1F [Example K32, Trifluoroacetic Acid Salt]"
  study target: "CDK2/Cyclin A (Homo sapiens, UniProt P24941)"
  class label: "criterion not met"
- compound: "Nc1nc(NC2CCN(S(=O)(=O)CCCN3CC=CC3)CC2)sc1C(=O)c1c(F)cccc1F"
  study target: "CDK2/Cyclin A (Homo sapiens, UniProt P24941)"
  class label: "criterion met"
- compound: "CN1CCCC(COc2ccc(S(=O)(=O)N3CCC(Nc4nc(N)c(C(=O)c5c(F)cccc5F)s4)CC3)cn2)C1 (stereo not shown) [Example H7, Trifluoroacetic Acid Salt]"
  study target: "CDK2/Cyclin A (Homo sapiens, UniProt P24941)"
  class label: "criterion met"
- compound: "COc1cc(C(=O)N2CCC(Nc3nc(N)c(C(=O)c4c(F)cccc4F)s3)CC2)cc(OC)c1C"
  study target: "CDK2/Cyclin A (Homo sapiens, UniProt P24941)"
  class label: "criterion not met"
- compound: "CN1CCN(CCc2ccc(S(=O)(=O)N3CCC(Nc4nc(N)c(C(=O)c5c(F)cccc5F)s4)CC3)cn2)CC1 [Example N4, Hydrochloride Salt]"
  study target: "CDK2/Cyclin A (Homo sapiens, UniProt P24941)"
  class label: "criterion met"
- compound: "Nc1nc(NC2CCN(S(=O)(=O)c3ccc([N+](=O)[O-])cn3)CC2)sc1C(=O)c1c(F)cccc1F"
  study target: "CDK2/Cyclin A (Homo sapiens, UniProt P24941)"
  class label: "criterion not met"
- compound: "Nc1nc(NC2CCN(S(=O)(=O)c3ccc(SCCN4CCOCC4)nc3)CC2)sc1C(=O)c1c(F)cccc1F [Example L7, Dihydrochloride]"
  study target: "CDK2/Cyclin A (Homo sapiens, UniProt P24941)"
  class label: "criterion met"
- compound: "C[C@@H]1CN(CCc2ccc(S(=O)(=O)N3CCC(Nc4nc(N)c(C(=O)c5c(F)cccc5F)s4)CC3)cn2)C[C@H](C)N1 [Example N8, Hydrochloride Salt]"
  study target: "CDK2/Cyclin A (Homo sapiens, UniProt P24941)"
  class label: "criterion met"
- compound: "Nc1nc(NC2CCN(S(=O)(=O)c3ccc(CN4CCCC4)cc3)CC2)sc1C(=O)c1c(F)cccc1F [Example J6, Hydrochloride]"
  study target: "CDK2/Cyclin A (Homo sapiens, UniProt P24941)"
  class label: "criterion met"
- compound: "CC1(C)CN(c2ccc(S(=O)(=O)N3CCC(Nc4nc(N)c(C(=O)c5c(F)cccc5F)s4)CC3)cc2)CCN1"
  study target: "CDK2/Cyclin A (Homo sapiens, UniProt P24941)"
  class label: "criterion met"
- compound: "CCOC(=O)N1CCC(Nc2nc(N)c(C(=O)c3c(F)cccc3F)s2)CC1"
  study target: "CDK2/Cyclin A (Homo sapiens, UniProt P24941)"
  class label: "criterion not met"
- compound: "CC(C)OC(=O)NS(=O)(=O)N1CCC(Nc2nc(N)c(C(=O)c3c(F)cccc3F)s2)CC1"
  study target: "CDK2/Cyclin A (Homo sapiens, UniProt P24941)"
  class label: "criterion not met"
- compound: "CC1(C)CN(CCCS(=O)(=O)N2CCC(Nc3nc(N)c(C(=O)c4c(F)cccc4F)s3)CC2)CCN1"
  study target: "CDK2/Cyclin A (Homo sapiens, UniProt P24941)"
  class label: "criterion not met"
- compound: "Cn1cncc1C(=O)N1CCC(Nc2nc(N)c(C(=O)c3c(F)cccc3F)s2)CC1"
  study target: "CDK2/Cyclin A (Homo sapiens, UniProt P24941)"
  class label: "criterion not met"
- compound: "CC1C=CC(C)N1CCS(=O)(=O)N1CCC(Nc2nc(N)c(C(=O)c3c(F)cccc3F)s2)CC1 (mixture of isomers) [Example K27, Trifluoroacetic Acid Salt]"
  study target: "CDK2/Cyclin A (Homo sapiens, UniProt P24941)"
  class label: "criterion not met"
- compound: "Nc1nc(NC2CCN(C(=O)c3sccc3Cl)CC2)sc1C(=O)c1c(F)cccc1F"
  study target: "CDK2/Cyclin A (Homo sapiens, UniProt P24941)"
  class label: "criterion not met"
- compound: "Nc1nc(NC2CCN(S(=O)(=O)c3ccc(OCCN4CCCCC4)nc3)CC2)sc1C(=O)c1c(F)cccc1F [Example H6, Dihydrochloride]"
  study target: "CDK2/Cyclin A (Homo sapiens, UniProt P24941)"
  class label: "criterion met"
- compound: "CN1CCC(C(=O)N2CCC(Nc3nc(N)c(C(=O)c4c(F)cccc4F)s3)CC2)CC1 [Example D1]"
  study target: "CDK2/Cyclin A (Homo sapiens, UniProt P24941)"
  class label: "criterion not met"

Cited source: patent US20050101595A1
